Assay: Solubility in various PH medium
Assay type: physicochemical
Settings: media of various pH, aqueous buffer; in PH1-11; read-out: Solubility (μg/ml) in various PH medium
Measurement label: solubility

input: Form field: reported solubility of Cc1cccc(C(C)c2c[nH]c(=S)[nH]2)c1C (stereo not shown)
output: 19.3 to 27.5 µg/mL

====

Assay: Solubility in water
Conditions: water
Measurement label: solubility at 24 hr
Units required after the number.

input: Form field: reported solubility at 24 hr of CC12CC3CC(C)(C1)CC(N)(C3)C2.Cl [Memantine HCl]
output: 45 mg/mL

====

Test: Pka determination
Assay type: physicochemical
Exercise: for every item that follows, state its recorded pKa.
Numbers only.

Cc1cccc(C(C)c2c[nH]c(=S)[nH]2)c1C (centres unmarked) :: 11.3

Next:
input: Form field: reported pKa of CC12CC3CC(C)(C1)CC(N)(C3)C2.Cl [Memantine HCl]
output: 10.5
